Target: Aurora B kinase (Homo sapiens)
Construct: purchased BPS Bioscience
Sequence (Q96GD4 whole entry): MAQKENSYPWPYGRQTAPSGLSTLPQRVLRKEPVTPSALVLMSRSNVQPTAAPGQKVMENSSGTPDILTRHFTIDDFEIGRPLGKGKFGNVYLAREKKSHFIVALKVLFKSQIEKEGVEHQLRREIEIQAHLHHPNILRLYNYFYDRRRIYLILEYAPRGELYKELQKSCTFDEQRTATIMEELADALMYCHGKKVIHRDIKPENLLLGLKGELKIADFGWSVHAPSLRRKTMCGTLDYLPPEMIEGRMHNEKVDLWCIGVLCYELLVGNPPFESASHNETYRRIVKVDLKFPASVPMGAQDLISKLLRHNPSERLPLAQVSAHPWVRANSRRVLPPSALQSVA
Assay: Aurora B kinase assay (IMAP fluorescence polarization)
Type: biochemical
Settings: 10 μM ATP; rounded to 1 significant figure; read-out: Aur-B IC50
MEASURED_PROPERTY: IC50 (nM)

[
  {
    "MOLECULE": "CCN(C(=O)C1CCN(C)CC1)c1ccc2c(c1)N/C(=C(/C(N)=O)c1nccc(C(F)(F)F)n1)N2 [Compound 141A]",
    "MEASUREMENT": 6
  },
  {
    "MOLECULE": "NC(=O)/C(=C1\\Nc2ccc(CC(=O)NCCCN3CCOCC3)cc2S1)c1nccc(C(F)(F)F)n1 [Compound 110A]",
    "MEASUREMENT": 20
  },
  {
    "MOLECULE": "NC(=O)C(=C1Nc2ccc(C(=O)NCCCN3CCOCC3)cc2N1)c1nccc(C(F)(F)F)n1 (single isomer, unassigned) [Compound 39A]",
    "MEASUREMENT": 5
  }
]

I = NC(=O)/C(=C1\Nc2ccc(-c3cccnc3)cc2S1)c1nccc(C(F)(F)F)n1 [Compound 108A]
II = NC(=O)/C(=C1\Nc2ccccc2S1)c1nc(N)cc(C(F)(F)F)n1 [Compound 13A]
III = NC(=O)/C(=C1\Nc2ccc(-c3cccnc3)cc2N1)c1nccc(C(F)(F)F)n1 [Compound 107A]
Ask: Order by IC50, ascending. Quick reminder: the answer is the labels in the order asked.
Result: II, I, III
(II: 3 nM, I: 10 nM, III: 20 nM)

Where these numbers come from: patent US8129396B2
